Test system: OVCAR-5 ovarian
Measurement Description: NCI tumour cell line growth inhibition, 48 h

# Compound, GI50
records = [
    ("Cc1cc(C)c([I+]c2c(C)cc(C)cc2C)c(C)c1", "0.781 µM"),
    ("COc1cccc(C2SC(C)C(=O)N2NC(=O)C(O)c2ccccc2)c1 (stereo not given)", "> 100 µM"),
    ("Cn1cnc(SC2=CC(=O)C=C3S[C@H]4C[C@@]23c2c(c(O)c3c5c2=NCCC=5C=N3)N4)c1CC(N)C(=O)O (stereo not given in full)", "19.4 µM"),
    ("O=C(N/N=C\\c1ccc(N(CCCl)CCCl)cc1)c1cccnc1", "> 100 µM"),
    ("CCC(CO)Nc1nc(NCc2ccccc2)c2n[nH]c(C(C)C)c2n1 (stereo not given)", "13.4 µM"),
    ("N#C[S-].[Ce+3].c1ccc(-c2ccccn2)nc1.c1ccc(-c2ccccn2)nc1.c1ccc(-c2ccccn2)nc1", "6.15 µM"),
    ("COc1ccc(NC(=O)c2ccc(C(F)(F)F)nc2Nc2ccc(Cl)cc2C)cc1Cl", "9.62 µM"),
    ("O=C1NN(C(=O)c2ccccc2)C(c2ccc(Cl)c(Cl)c2)=C/C1=C\\c1ccccc1[N+](=O)[O-]", "1.96 µM"),
    ("CC[C@H](C)[C@H](NC(=O)c1ncccn1)C(=O)N(C)[C@H](C[C@@H](OC(C)=O)c1nc(C(=O)N[C@@H](Cc2ccccc2)C[C@H](C)C(=O)OC)cs1)C(C)C", "5.07 µM"),
    ("COc1cc(/C=C2\\C[C@H]3[C@@H]4CC=C5C[C@@H](O)CC[C@]5(C)[C@H]4CC[C@]3(C)[C@H]2O)ccc1OCCN1CCCCC1", "1.03 µM"),
]

* * *

// TGI lookup, one value per entry
System: DU-145 prostate
Measurement Description: NCI tumour cell line growth inhibition, 48 h
Measurement Label: TGI

# Structure, Reading
rows = [
    ("CC(=O)/C(=C/N1CC(=O)NC1=S)C(=O)Nc1ccccc1C", "> 100 µM"),
    ("CC(C)(C)c1cc[n+](C[n+]2ccc(C(C)(C)C)cc2)cc1", "> 100 µM"),
    ("O=C1/C(=C/c2ccc(Cl)cc2)N=C(c2ccccc2)N1c1cc(C(F)(F)F)ccc1Cl", "> 100 µM"),
    ("CC[C@H](C)[C@H](NC(=O)c1ncccn1)C(=O)N(C)[C@H](C[C@@H](OC(C)=O)c1nc(C(=O)N[C@@H](Cc2ccccc2)C[C@H](C)C(=O)OC)cs1)C(C)C", "> 25 µM"),
    ("CC1(C)CC[C@]2(C(=O)NCCNCCN)CC[C@]3(C)C(=CC[C@@H]4[C@@]5(C)CCC(=O)C(C)(C)[C@@H]5CC[C@]43C)[C@@H]2C1", "3.41 µM"),
]

* * *

Test system: MDA-N
Measurement Description: NCI tumour cell line growth inhibition, 48 h
// TGI lookup, one value per entry
Measurement Label: TGI

# Molecule, Reading
measured = [
    ("CCSC1=N/C(=C\\c2ccco2)C(Nc2ccc(C)cc2)=N1", "> 100 µM"),
    ("CC(C)CC(C#CCCOC(=O)c1ccccc1)OC(=O)c1ccccc1 (stereo unspecified)", "> 10 µM"),
    ("CN1CCN(c2ccncc2S(=O)(=O)N2CCN(C)CC2)CC1", "> 100 µM"),
    ("Cc1ccc(S(=O)(=O)NC(Cc2ccccc2)C(=O)CCl)cc1 (stereo unspecified)", "27.8 µM"),
    ("CC(C)(C)n1[nH]c(=O)n(C(C)(C)C)c1=O", "> 100 µM"),
    ("CCOC(=O)c1ccc(Nc2nc3ccccc3n3cccc23)cc1", "> 100 µM"),
    ("COc1c(C)c(C/C=C(\\C)CC/C=C(\\C)CC/C=C(\\C)CC/C=C(\\C)CCC=C(C)C)c(OC)c(OC)c1OC", "> 100 µM"),
    ("CCCC(=O)Oc1c2ccsc2c(OC(=O)CCC)c2ccsc12", "0.725 µM"),
    ("Oc1cccc2cccnc12", "> 100 µM"),
    ("COc1ccc(CC2Cc3ccccc3CC(=O)N2)cc1OC (stereo unspecified)", "> 100 µM"),
    ("COC(=O)c1ccc(NCC2=CC(=O)C=CC2=O)cc1O", "35.8 µM"),
]
